test system: S. cerevisiae BY4741 (wild-type), vegetative growth in YPD; test: growth sensitivity score (doubling time z-score vs DMSO controls); higher = slower growth, strongly negative scores also mark growth inhibition (complete suppression), active = hit call of the paper
Record form. Attribute: growth sensitivity score. Fill in for each entry.
Would you mind answering with just the numeric figure?

The compound listed as CCOC(=O)C1=C(COCCN)NC(C)=C(C(=O)OC)C1c1ccccc1Cl (stereo not given) [Amlodipine base] (stock concentration (mM, diluted 1:100): 13.9) shows growth sensitivity score equal to 14.2

The value of growth sensitivity score measured for the compound C#C[C@]1(O)CC[C@H]2[C@@H]3CCC4=CC(=O)CC[C@@H]4[C@H]3CC[C@@]21CC [Levonorgestrel] (stock concentration (mM, diluted 1:100): 10) turned out to be 0.89

Note to self: growth sensitivity score recorded for CC(=O)O[C@H]1C[C@@H]2CC[C@@H]3[C@H](CC[C@@]4(C)[C@H]3C[C@H]([N+]3(C)CCCCC3)[C@@H]4OC(C)=O)[C@@]2(C)C[C@@H]1N1CCCCC1 [Vecuronium bromide] (stock concentration (mM, diluted 1:100): 10) was 0.21

Query C[C@H]1C[C@H]2[C@@H]3CCC4=CC(=O)C=C[C@]4(C)[C@@]3(Cl)[C@@H](O)C[C@]2(C)[C@@]1(O)C(=O)CO [Beclomethasone] (stock concentration (mM, diluted 1:100): 10) yields growth sensitivity score of 0.52

Value of measured growth sensitivity score for the entry CC#C[C@]1(O)CC[C@H]2[C@@H]3CCC4=CC(=O)CCC4=C3[C@@H](c3ccc(N(C)C)cc3)C[C@@]21C [Mifepristone] (stock concentration (mM, diluted 1:100): 10) : -2.51
